Recorded apparent KD of K4 kissing-loop reporter by entry
- Test system: K4 kissing-loop RNA reporter;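 further: bound reporter read as fluorescence of individual clusters on recovered sequencing chips by microscopy, with normalized cluster intensities fitted with a binding model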
- RUN_DESCRIPTION: apparent KD of K4 kissing-loop reporter; higher = weaker reporter binding
- CONDITIONS_USED: Eterna round: R107; input ligand: FMN 200 uM

CONSTRUCT_SEQUENCE	apparent KD of K4 kissing-loop reporter (nM)
AGUACAAUGGCGGCCGCCACUCAACGCAGAUCAAAGAUCUGCAUUCACUCAGUGAUGUUGAGUGAGAGGACCGGGCCUUUGUACA [Omei KL Tryp B SS B v1]	701
CUCGAGUGAUGUUCGAUUAUGUAUACAGAUACCAGUGAAUUUUAACACCCUUGGCAGCUGGUAGAAUCAUUGUAAUUUUAACUAG [JR_ExcTheophyA_Sub001]	175
UUAAAAUAUAUAAAUAAUAAGGGAAUUGAUACCAGACAGAAUUCUGUCCCUUGGCAGCAGUGAUGUUGUUGCAAUUUAAAUAAUU [AK1 Exc Theophylline A]	104

Origin of values: the supplement of paper PMC9170038
